Type: in vivo, Male Wistar rats
Settings: male, Wistar, rat, kidneys, po
experimental-endpoint: concentration at 24 h (ng/g)

compound: CCc1ccc(Cc2ccc3c(c2)[C@]2(OC3)O[C@H](CO)[C@@H](O)[C@H](O)[C@H]2O)cc1 [Tofogliflozin, tofogliflozin]
reported-measurement: 201

1 = OC[C@H]1O[C@@H](c2ccc(F)c(Cc3cc4ccccc4s3)c2)[C@H](O)[C@@H](O)[C@@H]1O [Ipragliflozin, ipragliflozin]
2 = CCOc1ccc(Cc2cc([C@@H]3O[C@H](CO)[C@@H](O)[C@H](O)[C@H]3O)ccc2Cl)cc1 [Dapagliflozin, dapagliflozin]
Q. Please state the entry with greater concentration at 24 h among 1 and 2 . Returns: label corresponding to the selected item.
A. 1

---

Format: in vivo, Male Wistar rats
Conditions: male, Wistar, rat, skin tissue, po, 1 mg/kg
experimental-endpoint: concentration at 24 h (ng/g)
The reply should be a number in ng/g, with the unit left off.

Query OC[C@H]1O[C@@H](c2ccc(F)c(Cc3cc4ccccc4s3)c2)[C@H](O)[C@@H](O)[C@@H]1O yields concentration at 24 h of 90.6

---

Type: in vivo, Male Wistar rats
Conditions: male, Wistar, rat, kidneys, po
experimental-endpoint: concentration at 8 h (ng/g)

input-smiles: CCc1ccc(Cc2ccc3c(c2)[C@]2(OC3)O[C@H](CO)[C@@H](O)[C@H](O)[C@H]2O)cc1
concentration at 8 h [ng/g]: 492

I = CCOc1ccc(Cc2cc([C@@H]3O[C@H](CO)[C@@H](O)[C@H](O)[C@H]3O)ccc2Cl)cc1
II = OC[C@H]1O[C@@H](c2ccc(F)c(Cc3cc4ccccc4s3)c2)[C@H](O)[C@@H](O)[C@@H]1O
III = CCOc1ccc(Cc2cc([C@@H]3S[C@H](CO)[C@@H](O)[C@H](O)[C@H]3O)c(OC)cc2C)cc1
Q. Returns the items ordered by concentration at 8 h, from maximum to minimum. Hello, could you send the labels back in the order asked? Thank you.
A. II, I, III

---

Format: in vivo, Male Wistar rats
Details: male, Wistar, rat, small intestine, po
experimental-endpoint: concentration at 1 h (ng/g)

Record excerpt, results attached:
input-smiles: CCOc1ccc(Cc2cc([C@@H]3O[C@H](CO)[C@@H](O)[C@H](O)[C@H]3O)ccc2Cl)cc1
scale-unit: ng/g
concentration at 1 h: 37.9

input-smiles: CCOc1ccc(Cc2cc([C@@H]3S[C@H](CO)[C@@H](O)[C@H](O)[C@H]3O)c(OC)cc2C)cc1
scale-unit: ng/g
concentration at 1 h: 251

P = CCc1ccc(Cc2ccc3c(c2)[C@]2(OC3)O[C@H](CO)[C@@H](O)[C@H](O)[C@H]2O)cc1
Q = OC[C@H]1O[C@@H](c2ccc(F)c(Cc3cc4ccccc4s3)c2)[C@H](O)[C@@H](O)[C@@H]1O
Q. # compare concentration at 1 h for P vs Q ; return the one with the smaller value Returns: label corresponding to the selected item.
A. Q
(Q: 730 ng/g, P: 1360 ng/g)

---

Assay type: in vivo, Male Wistar rats
Conditions: male, Wistar, rat, kidneys, po
experimental-endpoint: concentration at 1 h (ng/g)

Record excerpt, results attached:
molecule: CCOc1ccc(Cc2cc([C@@H]3S[C@H](CO)[C@@H](O)[C@H](O)[C@H]3O)c(OC)cc2C)cc1 [Luseogliflozin, luseogliflozin]
concentration at 1 h (ng/g): 94.9

molecule: CCOc1ccc(Cc2cc([C@@H]3O[C@H](CO)[C@@H](O)[C@H](O)[C@H]3O)ccc2Cl)cc1 [Dapagliflozin, dapagliflozin]
concentration at 1 h (ng/g): 1030

1 = CCc1ccc(Cc2ccc3c(c2)[C@]2(OC3)O[C@H](CO)[C@@H](O)[C@H](O)[C@H]2O)cc1 [Tofogliflozin, tofogliflozin]
2 = OC[C@H]1O[C@@H](c2ccc(F)c(Cc3cc4ccccc4s3)c2)[C@H](O)[C@@H](O)[C@@H]1O [Ipragliflozin, ipragliflozin]
Q. Please state the entry with greater concentration at 1 h among 1 and 2 . Returns: label corresponding to the selected item.
A. 2
(2: 1420 ng/g, 1: 848 ng/g)

---

Type: in vivo, Male Wistar rats
Conditions: male, Wistar, rat, skin tissue, po
experimental-endpoint: concentration at 1 h (ng/g)

compound: CCc1ccc(Cc2ccc3c(c2)[C@]2(OC3)O[C@H](CO)[C@@H](O)[C@H](O)[C@H]2O)cc1 [Tofogliflozin, tofogliflozin]
reported-measurement: 103

P = OC[C@H]1O[C@@H](c2ccc(F)c(Cc3cc4ccccc4s3)c2)[C@H](O)[C@@H](O)[C@@H]1O [Ipragliflozin, ipragliflozin]
Q = CCOc1ccc(Cc2cc([C@@H]3O[C@H](CO)[C@@H](O)[C@H](O)[C@H]3O)ccc2Cl)cc1 [Dapagliflozin, dapagliflozin]
Q. # compare concentration at 1 h for P vs Q ; return the one with the smaller value Returns: label corresponding to the selected item.
A. Q

---

Type: in vivo, Male Wistar rats
Conditions: male, Wistar, rat, skin tissue, po
experimental-endpoint: concentration at 8 h (ng/g)

input-smiles: CCOc1ccc(Cc2cc([C@@H]3O[C@H](CO)[C@@H](O)[C@H](O)[C@H]3O)ccc2Cl)cc1
concentration at 8 h / ng/g: 13

I = OC[C@H]1O[C@@H](c2ccc(F)c(Cc3cc4ccccc4s3)c2)[C@H](O)[C@@H](O)[C@@H]1O
II = CCc1ccc(Cc2ccc3c(c2)[C@]2(OC3)O[C@H](CO)[C@@H](O)[C@H](O)[C@H]2O)cc1
Q. Please state the entry with greater concentration at 8 h among I and II . Returns: label corresponding to the selected item.
A. I
